Parameter: cell viability. Scope: all listed entries.
Test system: HL-60
Assay Remarks: cell viability (% survival relative to DMSO control); higher = less cytotoxic
Recorded Conditions: 0.01 µM; 72 h; co-treatment: DMSO vehicle
Give the value, in units of %, as a plain number.

Solved cases (8 shown):
cell viability measured on "Sc1ncnc2nc[nH]c12" = 98.8

cell viability in this record for "C#Cc1cnc(O)nc1O" : 102

// recorded cell viability for "CCN(CC)CCN(Cc1ccc(-c2ccc(C(F)(F)F)cc2)cc1)C(=O)Cn1c(SCc2ccc(F)cc2)nc(=O)c2c1CCC2" : 99.5

For "O=C(COc1ccc(C(=O)c2ccccc2)cc1)NC1CCN(Cc2ccccc2)CC1" the compound record lists cell viability as 100

# cell viability (compound: CC12CCC(O)CC1CCC1C2CCC2(C)C(C3=CC(=O)OC3)CCC12O (centres undefined) ) is 105

Entry under test: "CCOC(=O)[C@H]1O[C@@H]1C(=O)N[C@@H](CC(C)C)C(=O)NCCC(C)C" . Its cell viability was 104

Quick note, cell viability for "CC(C)C[C@H](NC(=O)[C@@H](O)[C@H](N)Cc1ccccc1)C(=O)O" landed at 103

Lab note: measured cell viability of "O=C1Nc2ccccc2/C1=C\NCCc1ccc(O)c(O)c1" was 100

Kindly review the next compound as well.
"CCOc1ccc(Cc2cc([C@@H]3O[C@H](CO)[C@@H](O)[C@H](O)[C@H]3O)ccc2Cl)cc1" yielded cell viability of 101
